- Tested on: Wolbachia pipientis
- Assay notes: Anti-Wolbachia Cell-Based Screen
- Assay type: functional
- Design: scale not given: in the data most compounds retested in dose-response had high values
- Condition description: 5 µM
Out of some 48,000 compounds screened, about 13,000 (27%) showed an effect of 50% or more. Some of the results follow.
Measurement type: Percent Effect (%)
Just the number please, in %, no unit attached.

# annotated cases, reported Percent Effect shown
Molecule	Value unit	Observed result
CCOCCNc1nc(-c2ccncc2)nc2c1CCNCC2	%	0.459
Fc1cccc(Nc2nc(N3CCCC3)nc3c2CNCC3)c1	%	142.6
O=S(=O)(Nc1cnc(N2CCCC2)nc1)c1ccc(F)cc1F	%	5.953

Q: For Wolbachia pipientis, provide Percent Effect of `O=C(C[C@@H]1COC[C@H]2CN(CC3CCOCC3)C[C@@H]12)N1CCCCO1.O=C(O)C(F)(F)F` please.
Result: -14.45

Q: Thanks! And `Clc1ccc(OCCNC2(c3ccc(Br)cc3)CCOCC2)cc1` ?
Result: 18.48

Q: Item: CC(=O)NC(C)C1=CCCN(Cc2ccc(C(=O)O)cc2)C1 (stereo unspecified)
Result: -17.16

Q: Next entry: `CNC(=O)N1CCC2(CC1)CN(C)Cc1cc(F)ccc12.Cl`
Result: 24.69

Q: Also need `COc1nccnc1N1CCN(Cc2cccc(C)c2)C(=O)C1` , thanks.
Result: -1.846

Q: Another molecule to look at: `COc1ccc(CC(=O)Nc2c(C)nc(N3CCCC3)nc2C)cc1`
Result: 3.23

Q: // same read-out, input: `c1csc(CCNc2nc(-c3ccncc3)nc3c2CCNCC3)c1`
Result: -1.817

Q: Repeat with `COc1cccc(-n2ccc3nc(N4CCCC4)ncc3c2=O)c1`
Result: -5.391

Cited source for all entries: ChEMBL document CHEMBL3988442
